The entries below come with measured PF50 (30 nM) values attached.
Test system: HeLa cells
Test protocol: Potentiation Factor (PF50): MMS growth inhibition, SRB assay
Format: cell-based
Condition: MMS 0-10 μg/ml, PARP inhibitor at 30 nM, ratio IC50 control / IC50 + inhibitor
# output: bare number, no unit

Would you please look over these solved cases?
{"columns": ["Compound", "PF50 (30 nM)"],
 "data": [
  ["COC1CCN(C(=O)c2cc(Cc3n[nH]c(=O)c4cc(Cl)ccc34)ccc2F)CC1 [Compound 69]", 1.7],
  ["Cc1ccc(OC2CCN(C(=O)c3cc(Cc4n[nH]c(=O)c5ccccc45)ccc3F)CC2)nn1 [Compound 26b]", 1.5],
  ["O=C(COC1CCN(C(=O)c2cc(Cc3n[nH]c(=O)c4ccccc34)ccc2F)CC1)N1CCCC1 [Compound 107]", 1.7]
]}

Record O=C(c1cc(Cc2n[nH]c(=O)c3ccccc23)ccn1)N1CCC(Oc2ccc(F)cc2)CC1 [Compound 6b] , field PF50 (30 nM): 1.5

# PF50 (30 nM) of NC(=O)c1ccnc(OC2CCN(C(=O)c3cc(Cc4n[nH]c(=O)c5ccccc45)ccc3F)CC2)c1 [Compound 26g] = 1.6

According to the records, this compound O=C(c1cccc(Cc2n[nH]c(=O)c3ccccc23)c1)N1CCC(OC2CCCC2)CC1 [Compound 37] displays PF50 (30 nM) of 1.7

What the record says about CC(C)COC1CCN(C(=O)c2cccc(Cc3n[nH]c(=O)c4c(F)ccc(F)c34)c2)CC1 [Compound 4c] : PF50 (30 nM) is 1.2

Record CC(C)OC1CCN(C(=O)c2cc(Cc3n[nH]c(=O)c4ccccc34)ccn2)CC1 [Compound 25] . Reported PF50 (30 nM): 2.1

CC1(O)CCN(C(=O)c2cc(Cc3n[nH]c(=O)c4ccccc34)ccc2F)CC1 [Compound 74] has a reported PF50 (30 nM) of 1.5

// PF50 (30 nM) value for O=C(c1cc(Cc2n[nH]c(=O)c3ccccc23)ccc1F)N1CCC(OC2CCC2)CC1 [Compound 15] : 4.4

Per the record, CCOC1CCN(C(=O)c2cc(Cc3n[nH]c(=O)c4cccc(OC)c34)ccc2F)CC1 [Compound 126b] has PF50 (30 nM) of 7.4

Input Cc1cnc(OC2CCN(C(=O)c3cc(Cc4n[nH]c(=O)c5ccccc45)ccc3F)CC2)c(C)n1 [Compound 26i] . Output PF50 (30 nM): 8.0

# compound O=C(COC1CCN(C(=O)c2cc(Cc3n[nH]c(=O)c4ccccc34)ccc2F)CC1)N1CCOCC1 [Compound 77] ; its PF50 (30 nM) = 3.1

GET /value?item= O=C(c1cc(Cc2n[nH]c(=O)c3ccccc23)ccc1F)N1CCC(OCC2CC2)CC1 [Compound 2g] &field=PF50 (30 nM) returns 4.3

Kindly note the recorded PF50 (30 nM) for CC(C)(C)OC1CCN(C(=O)c2cc(Cc3n[nH]c(=O)c4ccccc34)ccn2)CC1 [Compound 73] , which is 6.2

Short answer for O=C(c1cc(Cc2n[nH]c(=O)c3ccccc23)ccc1F)N1CCC(Oc2ncccn2)CC1 [Compound 26e] : PF50 (30 nM) was 2.7

----------
Test system: HeLa cells
Test protocol: Potentiation Factor (PF50): MMS growth inhibition, SRB assay
Format: cell-based
Condition: MMS 0-10 μg/ml, PARP inhibitor at 30 nM, ratio IC50 control / IC50 + inhibitor
Recorded metric: PF50 (30 nM)
Lab note: record the figure alone, no unit after it.

Worked examples follow.
{"columns": ["Compound", "Test system", "PF50 (30 nM)"],
 "data": [
  ["COc1ccccc1OC1CCN(C(=O)c2cc(Cc3n[nH]c(=O)c4ccccc34)ccc2F)CC1", "HeLa cells", 1.2],
  ["Cc1cnc(C)c(OC2CCN(C(=O)c3cc(Cc4n[nH]c(=O)c5ccccc45)ccc3F)CC2)n1 [Compound 26j]", "HeLa cells", 1.2],
  ["N#Cc1ccc(OC2CCN(C(=O)c3cc(Cc4n[nH]c(=O)c5ccccc45)ccc3F)CC2)nc1 [Compound 26c]", "HeLa cells", 32.4]
]}

What the record says about Cc1nccnc1OC1CCN(C(=O)c2cc(Cc3n[nH]c(=O)c4ccccc34)ccc2F)CC1 [Compound 26h] : PF50 (30 nM) is 12.7

The reported PF50 (30 nM) of the compound "COC1CCN(C(=O)c2cc(Cc3n[nH]c(=O)c4c(C)[nH]c(C)c34)ccc2F)CC1" was 1.0

// recorded PF50 (30 nM) for "O=C(c1cc(Cc2n[nH]c(=O)c3ccccc23)ccn1)N1CCC(Oc2ccccc2)CC1" : 1.4

Memo: "CC(C)OC1CCN(C(=O)c2cc(Cc3n[nH]c(=O)c4ccccc34)ccc2F)CC1" , reported PF50 (30 nM): 33.6

PF50 (30 nM) recorded for this compound, "CC(C)(C)OC1CCN(C(=O)c2cc(Cc3n[nH]c(=O)c4ccccc34)ccc2F)CC1" , is 32.1
